target: RON (human) (Homo sapiens, UniProt Q04912)
Sequence (Q04912 25-1400): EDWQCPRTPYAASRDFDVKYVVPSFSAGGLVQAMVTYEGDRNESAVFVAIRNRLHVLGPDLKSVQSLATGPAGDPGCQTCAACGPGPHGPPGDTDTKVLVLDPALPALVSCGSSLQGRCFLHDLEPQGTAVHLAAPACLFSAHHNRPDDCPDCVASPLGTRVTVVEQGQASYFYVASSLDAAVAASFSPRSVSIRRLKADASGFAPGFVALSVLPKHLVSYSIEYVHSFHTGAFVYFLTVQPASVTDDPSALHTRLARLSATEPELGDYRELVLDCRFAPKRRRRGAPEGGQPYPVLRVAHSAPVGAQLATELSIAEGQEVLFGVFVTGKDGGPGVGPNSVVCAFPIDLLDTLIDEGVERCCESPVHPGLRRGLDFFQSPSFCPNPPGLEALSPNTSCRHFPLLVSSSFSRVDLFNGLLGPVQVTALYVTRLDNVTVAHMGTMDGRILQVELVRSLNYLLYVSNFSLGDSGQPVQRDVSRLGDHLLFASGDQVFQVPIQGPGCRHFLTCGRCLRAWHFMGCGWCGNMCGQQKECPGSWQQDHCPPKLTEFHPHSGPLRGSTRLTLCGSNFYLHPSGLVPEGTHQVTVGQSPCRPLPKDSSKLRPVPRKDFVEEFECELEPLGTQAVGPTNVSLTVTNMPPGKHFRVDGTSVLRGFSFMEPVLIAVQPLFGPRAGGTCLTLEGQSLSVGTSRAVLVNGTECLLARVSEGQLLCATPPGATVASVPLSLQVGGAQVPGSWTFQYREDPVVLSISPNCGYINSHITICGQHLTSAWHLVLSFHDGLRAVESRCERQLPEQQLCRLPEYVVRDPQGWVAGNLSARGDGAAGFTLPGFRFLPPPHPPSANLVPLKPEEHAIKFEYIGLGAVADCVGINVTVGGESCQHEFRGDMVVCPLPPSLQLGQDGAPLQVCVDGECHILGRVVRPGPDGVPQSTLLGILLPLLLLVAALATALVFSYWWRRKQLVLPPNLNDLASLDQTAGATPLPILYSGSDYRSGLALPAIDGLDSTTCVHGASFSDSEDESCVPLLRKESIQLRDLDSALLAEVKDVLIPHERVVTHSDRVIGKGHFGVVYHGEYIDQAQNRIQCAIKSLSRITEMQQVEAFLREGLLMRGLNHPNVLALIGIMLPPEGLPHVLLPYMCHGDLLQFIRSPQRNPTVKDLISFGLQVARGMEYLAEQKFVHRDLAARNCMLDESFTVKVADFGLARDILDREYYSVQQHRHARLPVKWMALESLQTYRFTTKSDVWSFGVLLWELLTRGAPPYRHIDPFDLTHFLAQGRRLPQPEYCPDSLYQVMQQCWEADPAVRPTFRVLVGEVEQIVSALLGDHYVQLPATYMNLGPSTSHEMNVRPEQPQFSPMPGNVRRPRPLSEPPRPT
pIC50: −log10 of the molar value. Counter-ions that a name gives are not always drawn.
quantityMeasured: pIC50

pIC50 in this record for Nc1ncc(-c2cnn(C3CCNCC3)c2)cc1-c1cc2ccc(F)c(Cl)c2cn1 [Example 38, trihydrochloride salt] : 6.00 to 7.00

pIC50 in this record for Nc1ncc(-c2cnn(C3CCNCC3)c2)cc1-c1nc2c(F)c(F)ccc2s1 [Example 274] : 6.00 to 7.00

pIC50 in this record for Nc1ncc(-c2cnn(C3CCNCC3)c2)cc1-c1cc2c(Cl)c(F)cc(F)c2cn1 [Example 15, trihydrochloride salt] : 6.00 to 7.00

pIC50 in this record for Nc1ncc(-c2ccc(OCC(=O)N3CCN(CCO)CC3)cc2)cc1-c1nc2ccccc2s1 [Example 246] : 4.70 to 6.00

###

target: UniProt:Q04912
Where a name gives a salt, the structure may show the parent alone.
quantityMeasured: IC50

Recorded results for 5 compounds are shown here.
CNC(=O)CCn1cc(-c2cnc(N)c(-c3nc4ccccc4s3)c2)cn1 [Example 296]; 1000 to 20000 nM
Cc1c(-c2cc(-c3cnn(C4CCNCC4)c3)cnc2N)sc2ccccc12 [Example 105, bishydrochloride]; 1000 to 20000 nM
CN(C)CCN(C)C(=O)c1cccc(-c2cnc(N)c(-c3nc4ccccc4s3)c2)c1 [Example 220]; 1000 to 20000 nM
N#Cc1cccc2cnc(-c3cc(-c4cnn(C5CCNCC5)c4)cnc3N)cc12 [Example 33, trihydrochloride salt]; 100 to 1000 nM
Nc1ncc(-c2cnn(CC(=O)N3CCC(O)CC3)c2)cc1-c1nc2ccccc2s1 [Example 139]; 1000 to 20000 nM

IC50 in this record for Cc1ccc(C)c2cc(-c3cc(-c4cnn(C5CCNCC5)c4)cnc3N)ncc12 [Example 20, trihydrochloride salt] : 100 to 1000 nM

IC50 in this record for Cc1cccc2nc(-c3cc(-c4cnn(C5CCNCC5)c4)cnc3N)sc12 [Example 263] : ≤ 100 nM

###

target: MET (human) (Homo sapiens, UniProt P08581)
Sequence (P08581 25-1390): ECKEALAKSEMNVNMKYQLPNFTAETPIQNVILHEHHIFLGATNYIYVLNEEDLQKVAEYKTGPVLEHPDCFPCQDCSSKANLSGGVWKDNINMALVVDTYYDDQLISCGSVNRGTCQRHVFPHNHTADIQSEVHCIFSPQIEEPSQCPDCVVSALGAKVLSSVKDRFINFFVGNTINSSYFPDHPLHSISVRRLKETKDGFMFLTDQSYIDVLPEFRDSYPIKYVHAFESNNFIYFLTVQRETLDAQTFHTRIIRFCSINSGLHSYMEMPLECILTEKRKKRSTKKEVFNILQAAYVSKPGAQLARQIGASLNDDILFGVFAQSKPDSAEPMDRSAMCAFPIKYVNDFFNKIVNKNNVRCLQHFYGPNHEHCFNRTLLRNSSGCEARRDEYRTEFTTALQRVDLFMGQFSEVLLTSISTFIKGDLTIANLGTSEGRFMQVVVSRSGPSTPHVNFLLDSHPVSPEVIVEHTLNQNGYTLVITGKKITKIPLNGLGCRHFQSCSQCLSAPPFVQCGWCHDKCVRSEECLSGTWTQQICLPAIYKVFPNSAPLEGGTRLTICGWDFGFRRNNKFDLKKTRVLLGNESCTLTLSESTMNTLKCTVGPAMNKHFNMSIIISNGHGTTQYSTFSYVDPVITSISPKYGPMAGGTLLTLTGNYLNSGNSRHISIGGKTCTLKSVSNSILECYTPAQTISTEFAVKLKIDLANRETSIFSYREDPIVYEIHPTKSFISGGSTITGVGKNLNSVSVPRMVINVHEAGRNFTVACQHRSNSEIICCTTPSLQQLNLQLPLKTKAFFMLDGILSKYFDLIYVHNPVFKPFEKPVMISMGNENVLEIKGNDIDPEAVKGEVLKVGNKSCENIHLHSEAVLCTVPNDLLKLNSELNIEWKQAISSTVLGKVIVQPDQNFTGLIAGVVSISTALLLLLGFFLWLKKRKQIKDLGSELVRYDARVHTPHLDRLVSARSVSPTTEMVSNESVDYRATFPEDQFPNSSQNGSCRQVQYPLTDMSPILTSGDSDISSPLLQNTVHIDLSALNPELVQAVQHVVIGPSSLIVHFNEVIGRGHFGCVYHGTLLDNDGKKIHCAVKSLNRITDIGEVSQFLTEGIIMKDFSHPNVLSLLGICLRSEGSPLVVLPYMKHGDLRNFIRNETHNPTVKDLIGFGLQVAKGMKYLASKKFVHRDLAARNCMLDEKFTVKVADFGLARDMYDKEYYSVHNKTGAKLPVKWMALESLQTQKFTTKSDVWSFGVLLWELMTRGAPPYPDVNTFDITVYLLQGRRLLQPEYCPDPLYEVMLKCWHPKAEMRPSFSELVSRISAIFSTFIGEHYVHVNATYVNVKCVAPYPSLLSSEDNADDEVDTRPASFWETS
Structures can show the parent of a compound that is named as a salt.
Quick list: IC50 per entry.

Recorded results for 4 molecules are shown here.
Nc1ncc(-c2cnn(C3CCN(CC(=O)O)CC3)c2)cc1-c1nc2ccccc2s1; ≤ 100 nM
Nc1ncc(-c2cnn([C@@H]3CN[C@H](C(=O)N4CCOCC4)C3)c2)cc1-c1nc2ccccc2s1; ≤ 100 nM
Cc1c(-c2cc(-c3cnn(C4CCNCC4)c3)cnc2N)ncc2ccccc12 [Example 2, trihydrochloride]; 1000 to 20000 nM
Nc1ncc(-c2cnn(C3CCNCC3)c2)cc1-c1cc2cc(Br)ccc2cn1 [Example 23, trihydrochloride salt]; 100 to 1000 nM

Tested on MET (human) (Homo sapiens, UniProt P08581), the item Nc1ncc(-c2cnn(C3CCN(CC(F)(F)F)CC3)c2)cc1-c1cc2c(Cl)ccc(F)c2cn1 [Example 69, bis-hydrochloride] showed IC50 equal to 1000 to 20000 nM

Tested on MET (human) (Homo sapiens, UniProt P08581), the item Nc1ncc(-c2cnn(C3CNC3)c2)cc1-c1nc2ccccc2s1 [Example 181, trifluoroacetate] showed IC50 equal to ≤ 100 nM

Tested on MET (human) (Homo sapiens, UniProt P08581), the item Nc1ccc(-c2cnc(N)c(-c3cc4c(Cl)ccc(F)c4cn3)c2)cn1 showed IC50 equal to 1000 to 20000 nM

###

// values below are pIC50; system is RON (human) (Homo sapiens)
pIC50: −log10 of the molar value. Structures can show the parent of a compound that is named as a salt.

Recorded results for 3 compounds are shown here.
Nc1ncc(-c2cnn([C@@H]3CN[C@H](C(=O)N4CCOCC4)C3)c2)cc1-c1nc2ccccc2s1 [Example 157]; ≥ 7.00
CN(C)C(=O)N1CCC(n2cc(-c3cnc(N)c(-c4cc5ccccc5o4)c3)cn2)CC1 [Example 103, bis-hydrochloride]; 4.70 to 6.00
CC(C)n1cc(-c2cnc(N)c(-c3cc4ccccc4o3)c2)cn1 [Example 102, bis-hydrochloride]; 4.70 to 6.00

Tested on RON (human) (Homo sapiens), the item Nc1ncc(-c2cnn(C3CCNCC3)c2)cc1-c1cc2cc(Cl)ccc2cn1 [Example 40, trihydrochloride] showed pIC50 equal to 6.00 to 7.00

###

target: MET (human) (Homo sapiens, UniProt P08581)
pIC50: −log10 of the molar value. Structures can show the parent of a compound that is named as a salt.
Quick list: pIC50 per entry.

Recorded results for 7 molecules are shown here.
N#Cc1cccc2cnc(-c3cc(-c4cnn(C5CCNCC5)c4)cnc3N)cc12 [Example 33, trihydrochloride salt]; 6.00 to 7.00
Nc1ncc(-c2cnn(C3CCNCC3)c2)cc1-c1cc2cc(O)ccc2cn1 [Example 28, trihydrochloride salt]; 6.00 to 7.00
CN1C2CCC1CC(n1cc(-c3cnc(N)c(-c4nc5ccccc5s4)c3)cn1)C2 (centres unmarked) [Example 109]; ≥ 7.00
NC(=O)c1cccc(-c2cnc(N)c(-c3nc4ccccc4s3)c2)c1 [Example 196]; 4.70 to 6.00
Nc1ncc(-c2cnn(CCC(=O)NCCO)c2)cc1-c1nc2ccccc2s1 [Example 293]; 6.00 to 7.00
COc1ccc2cc(-c3cc(-c4cnn(C5CCNCC5)c4)cnc3N)ncc2c1 [Example 44, trihydrochloride]; 4.70 to 6.00
CS(=O)(=O)Nc1ccc(-c2cnc(N)c(-c3nc4ccccc4s3)c2)cc1 [Example 231]; 4.70 to 6.00

The record that follows has no pIC50 shown yet.
Tested on MET (human) (Homo sapiens, UniProt P08581), the item Nc1ncc(-c2ccc(C(=O)NC3CC3)cc2)cc1-c1nc2ccccc2s1 [Example 198] showed pIC50 equal to 4.70 to 6.00

###

target: MET (human) (Homo sapiens)
Structures can show the parent of a compound that is named as a salt.
Quick list: IC50 per entry.

CN(C)CC(=O)NCC#Cc1cnc(N)c(-c2nc3ccccc3s2)c1; 100 to 1000 nM

IC50 in this record for Nc1ncc(-c2cnn(C3CCNCC3)c2)cc1-c1cc2ccc(C(F)(F)F)cc2cn1 [Example 17, tri-hydrochloride salt] : 100 to 1000 nM

IC50 in this record for CN1C2CCC1CC(n1cc(-c3cnc(N)c(-c4cc5c(Cl)ccc(F)c5cn4)c3)cn1)C2 (centres unmarked) : 100 to 1000 nM

IC50 in this record for Nc1ncc(-c2cnn(C3CCN(CC(=O)N4CCCCC4)CC3)c2)cc1-c1nc2ccccc2s1 : 100 to 1000 nM

###

Quick list: pIC50 per entry.
biological target: RON (human) (Homo sapiens, UniProt Q04912)
pIC50: −log10 of the molar value.

Tested on RON (human) (Homo sapiens, UniProt Q04912), the item Nc1ncc(-c2ccccc2)cc1-c1cc2c(Cl)ccc(F)c2cn1 showed pIC50 equal to < 4.70

###

pIC50: −log10 of the molar value. Structures can show the parent of a compound that is named as a salt.
// values below are pIC50; system is MET (human) (Homo sapiens)

Recorded results for 7 compounds are shown here.
Nc1ncc(-c2ccc(OCC(=O)N3CCN(CCO)CC3)cc2)cc1-c1nc2ccccc2s1; 6.00 to 7.00
Nc1ncc(C2=CCNCC2)cc1-c1nc2ccccc2s1; 6.00 to 7.00
CNC(=O)Cn1cc(-c2cnc(N)c(-c3nc4ccccc4s3)c2)cn1; < 4.70
Nc1ncc(-c2cnn(C3CCNCC3)c2)cc1-c1nc2ccc(OC(F)(F)F)cc2s1; 4.70 to 6.00
Nc1ncc(-c2cnn(C3CCNCC3)c2)cc1-c1oc2ccccc2c1-c1ccccc1; 4.70 to 6.00
Nc1ncc(-c2ccco2)cc1-c1cc2c(Cl)ccc(F)c2cn1; 4.70 to 6.00
Nc1ncc(-c2cnn(C3CCN(C=O)CC3)c2)cc1-c1cc2c(Cl)ccc(F)c2cn1; 6.00 to 7.00

The record that follows has no pIC50 shown yet.
Tested on MET (human) (Homo sapiens), the item Nc1ncc(-c2cnn([C@@H]3CCNC3)c2)cc1-c1cc2ccccc2o1 [Example 99, dihydrochloride] showed pIC50 equal to 6.00 to 7.00

###

target: UniProt:P08581
pIC50: −log10 of the molar value. Structures can show the parent of a compound that is named as a salt.
quantityMeasured: pIC50

Recorded results for 3 compounds are shown here.
Nc1ncc(-c2cnn(C3CCNCC3)c2)cc1-c1cc2ccc(Br)cc2cn1 [Example 21, trihydrochloride salt]; 6.00 to 7.00
Nc1ncc(-c2cnn(C3CCNCC3)c2)cc1-c1nc2c(Cl)cccc2s1 [Example 278]; ≥ 7.00
COc1ccc2sc(-c3cc(-c4cnn(C5CCNCC5)c4)cnc3N)nc2c1 [Example 271]; 6.00 to 7.00

pIC50 in this record for Nc1ncc(-c2cnn(C3CCNCC3)c2)cc1-c1nc2cccc(-c3ccc[nH]3)c2s1 [Example 249, dihydrochloride] : ≥ 7.00

pIC50 in this record for Nc1ncc(-c2cnn(C3CCNCC3)c2)cc1-c1cc2ccc(OC(F)(F)F)cc2cn1 [Example 14, trihydrochloride] : 4.70 to 6.00

pIC50 in this record for Nc1ncc(-c2cnn(C3CCNCC3)c2)cc1-c1nc2cccc(-c3cccnc3)c2s1 [Example 250, dihydrochloride] : ≥ 7.00

pIC50 in this record for Nc1ncc(-c2cnn([C@H]3CCNC3)c2)cc1-c1cc2ccccc2o1 [Example 100, dihydrochloride] : 6.00 to 7.00
